# Tested target: T1, Human 46 mer peptide (RB exon of human CD45) (human)
# T1 construct: synthetic peptide; also called CD45RB 46 mer
# T1 peptide: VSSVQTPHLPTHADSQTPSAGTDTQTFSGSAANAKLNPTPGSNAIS
# Assay text: recombinant antibody on peptide
Measured parameter: binding result

• AB-CD45RB-XG2-662 (antibody, human IgG2, V domains shown, recombinant human IgG2 kappa; also called sc662) VH: QVQLVESGGDLVKPGGSLRLSCAASGFSFSGYYLSWIRQAPGKGLEWVSYISLSGSFIKYADSVKGRFTISRDNAKKTLHLQMNSLRAEDTAVYYCARRTGTTTVFDYWGQGTLVTVSS VL: EVVMTQSPATLSVSPGERATLSCRASQSVNSNLAWYQQRPGQAPRLLIYGASTRVTGIPARFSGSGSGTEFTLTISSLQSEDFAVYYCQQYNNWPLTFGGGTKVEIK = no binding
• AB-CD45RB-XG2-636 (antibody, human IgG2, V domains shown, recombinant human IgG2 kappa; also called sc636) VH: QVHLVESGGGLVKPGGSLRLSCAASGFTFINYYMTWIRQAPGKGLEWVSYISLSGSTIYYADSVKGRFTISRDNAKNSLFLQMNSLRAEDTAVYYCARRAATVTTFDYWGQGTLVTVSS VL: EIVMTQSPATLSVSPGERATLSCRASQSVRSNLAWSQQKPGQAPRLLIYGASTRATGIPARFSGSGSGTEFTLTISSLQSEDFAVYYCQQYNNWPLTFGGGTKVEIK = no binding
• AB-CD45RB-XG2-009 (antibody, human IgG2, V domains shown, recombinant human IgG2 kappa; also called sc009; 16C9 (sc009)) VH: QVQLVESGGGVVQPGRSLRLSCAASGFTFSNYGMHWVRQAPGKGLEWVAVIWYDGSKRFYAGSVKGRFTISRDNSKNTLYLQMNSLRAEDTAVYYCARTTDYWGQGTMVTVSS VL: DIVMTQTPLSLSVTPGQPASISCKSSQSLLHSDGKTYLYWYLQKPGQPPQLLIYEVSNRFSGVPDRFSGSGSGTDFTLKISRVEAEDVGLYWCMQSIQLPITFGQGTRLEIK = binds
• AB-CD45RB-XG2-648 (antibody, human IgG2, V domains shown, recombinant human IgG2 kappa; also called sc648) VH: QVQLVESGGGLVKPGGSLRLSCAASGFTFNVYYMNWIRQAPGKGLEWVSYISTSSSAIYYADSVKGRFTISRDNAKNSLYLQMNSLRAEDTAVYYCARRTGSTTVFDYWGQGTLVTVSS VL: EIVLTQSPATLSVSPGERATLSCRASQSINNNLAWYQQKPGQAPRLLIYGASTRATGIPAKFSGSGSGTEFTLTISSLQSENFAVYYCQQYNKWPLTFGGGTKVEIK = no binding
• AB-CD45RB-XG2-539 (antibody, human IgG2, V domains shown, recombinant human IgG2 kappa; also called sc539) VH: QVQLQESGPGLVKPSETLSLTCTVSGGSISGSYWSWIRQPAGKGLEWIGRIHSTGKTAYNPSLKSRVIMSLDTSKNLFSLKLTSVTAADTAVYYCARDYDFLTGYFDYWGQGTLVTVSS VL: DVVMTQSPLSLPVTLGQPASISCRSSQSLVYGDGNTYLNWFQQRPGHSPRRLIYKVSNWDSGVPDRFSGSGSGTDFTLKISRVEAEDVGIYYCMQGTHWPPTFGQGTRVEIK = no binding

Proceeding to the next binder to report its binding result.
[in] I'd like to know its binding result. The binder in question is AB-CD45RB-XG2-556 (antibody, human IgG2, V domains shown, recombinant human IgG2 kappa; also called sc556) VH: QVQLQESGPGLVKPSETLSLTCTVSGGSISGYYWSWIRQPAGKGLEWIGRIHTTGKTAYNPSLKSRVIMSVDTSKNLFSLKLTSVTAADTAVYYCARDYDFLTGYFDYWGQGTLVTVSS VL: DVVMTQSPLSLPVTLGQPASISCRSSQSLVYSDGNTYLNWFQQRPGHSPRRLIYKVSNWDSGVPDRFSGSGSGTDFTLKISRVEAEDVGIYYCMQGTHWPPTFGQGTRVEIK
[out] no binding
